Source listed as patent US5807850A.

Tested on: calvaria
Method: Inhibition of bone resorption (45Ca release from calvaria stimulated with hPTH (1-34), method of Raisz)
Type: cell-based, new born ICR mouse
Condition Info: Mus musculus, 72 h; 45Ca release, 50 nM hPTH (1-34), 3 days incubation; test concentrations 0.04, 0.2 and 1 μM; mean of 4 pairs; read-out: IC50 (inhibition of bone resorption)
Readout Type: IC50 (nM)

Worked set:
Cc1nnc2n1-c1ccccc1C(c1ccc(Cl)cc1)=NN2CC1CC1 | 830
Cc1nnc2n1-c1ccccc1C(c1ccc(Cl)cc1)=NN2Cc1ccc([N+](=O)[O-])cc1 | 720
Cc1nnc2n1-c1ccccc1C(c1ccc(Cl)cc1)=NN2Cc1cccc(Cl)c1 | 640

1. Cc1nnc2n1-c1ccccc1C(c1ccc(Cl)cc1)=NN2Cc1cccc([N+](=O)[O-])c1
2. COc1ccc(C2=NN(Cc3ccncc3)c3nnc(C)n3-c3sc(C)c(C)c32)cc1
3. COc1ccc(C2=NN(Cc3cccnc3)c3nnc(C)n3-c3sc(C)c(C)c32)cc1
// ranking: key=IC50, reverse=True Answer format: list of labels, ordered as asked.
1, 3, 2

P. Cc1nnc2n1-c1ccccc1C(c1ccc(Cl)cc1)=NN2Cc1cccc(F)c1
Q. Cc1nnc2n1-c1ccccc1C(c1ccccc1)=NN2Cc1cccnc1
# argmax over IC50 for candidates P and Q Returns: label corresponding to the selected item.
Q
